The entries below come with measured pIC50 values attached.
# system: SphK1 (Homo sapiens)
pIC50: −log10 of the molar value.

CC1(C)CCC(C)(C)c2cc(-c3csc(C4CCN(CCCCO)CC4)n3)ccc21 [Compound B2] | 6.00 to 8.00

Query: Query pIC50 on SphK1 (Homo sapiens) for CC1(C)CCC(C)(C)c2cc(-c3csc(C4CCN(C(=O)[C@H](N)CO)CC4)n3)ccc21 [Compound A70]
Reply: 5.00 to 6.00

Query: For the record CC1(C)CCC(C)(C)c2cc(-c3csc(C4CCN(C[C@@H](O)CO)CC4)n3)ccc21 [Compound A12] , what value of pIC50 is listed for SphK1 (Homo sapiens)?
Reply: 5.00 to 6.00

Query: Item CC1(C)CCC(C)(C)c2cc(-c3csc(C4CCN(C(=O)c5ccncc5)CC4)n3)ccc21 [Compound A52] with SphK1 (Homo sapiens) - pIC50?
Reply: 5.00 to 6.00

Query: Please provide the recorded pIC50 for CC(CO)N1CCC(c2nc(-c3ccc4c(c3)C(C)(C)CCC4(C)C)cs2)CC1 (centres unmarked) [Compound A38] , tested on SphK1 (Homo sapiens).
Reply: 6.00 to 8.00

Query: # returns recorded pIC50 (system: SphK1 (Homo sapiens)) for CC1(C)CCC(C)(C)c2cc(-c3csc(C4CCN(C(=O)NCC(N)=O)CC4)n3)ccc21 [Compound A44]
Reply: < 5.00

Query: Request - read-out pIC50 | tested on SphK1 (Homo sapiens) | compound CCN(CC)CCCN1CCC(c2nc(-c3ccc4c(c3)C(C)(C)CCC4(C)C)cs2)CC1 [Compound A36]
Reply: 5.00 to 6.00

Query: # query: pIC50 | item CC1(C)CCC(C)(C)c2cc(-c3csc(C4CCN(Cc5cc[nH]n5)CC4)n3)ccc21 [Compound B7] | system: SphK1 (Homo sapiens)
Reply: 6.00 to 8.00

Query: What value of pIC50 on SphK1 (Homo sapiens) does CC1(C)CCC(C)(C)c2cc(-c3csc(C4CCN(CCCCCO)CC4)n3)ccc21 [Compound B10] have?
Reply: 6.00 to 8.00

Query: Give the reported pIC50 for Cc1cc2c(cc1-c1csc(C3CCNCC3)n1)C(C)(C)CCC2(C)C [Compound C5] (system: SphK1 (Homo sapiens)).
Reply: 5.00 to 6.00

Query: I'm curious: which pIC50 was measured for COCC(O)CN1CCC(c2nc(-c3ccc4c(c3)C(C)(C)CCC4(C)C)cs2)CC1 (centres unmarked) [Compound A17] tested on SphK1 (Homo sapiens)?
Reply: 6.00 to 8.00

----------
# system: SphK1 (Homo sapiens, UniProt Q9NYA1)
# Sequence (Q9NYA1 whole entry): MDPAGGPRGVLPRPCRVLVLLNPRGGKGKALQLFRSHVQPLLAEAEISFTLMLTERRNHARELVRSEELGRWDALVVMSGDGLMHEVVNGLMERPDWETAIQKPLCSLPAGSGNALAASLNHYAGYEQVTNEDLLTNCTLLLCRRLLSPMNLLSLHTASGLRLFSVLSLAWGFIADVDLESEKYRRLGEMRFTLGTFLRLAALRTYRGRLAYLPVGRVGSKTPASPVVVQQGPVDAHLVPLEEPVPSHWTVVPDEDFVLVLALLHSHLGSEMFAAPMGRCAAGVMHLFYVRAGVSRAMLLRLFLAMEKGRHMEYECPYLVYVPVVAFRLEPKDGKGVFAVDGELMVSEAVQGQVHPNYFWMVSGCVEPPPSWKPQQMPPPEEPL
Parameter IC50: see the listing below.

Recorded results for 4 compounds are shown here.
COCCCOC(=O)N1CCC(c2nc(-c3ccc4c(c3)C(C)(C)CCC4(C)C)cs2)CC1 [Compound A46] | 1000 to 10000 nM
CC1(C)CCC(C)(C)c2cc(-c3csc(C4CCN(C(=O)OCC5CNCCO5)CC4)n3)ccc21 (stereo not drawn) [Compound B16] | 1000 to 10000 nM
CC(C)NCC(O)CN1CCC(c2nc(-c3ccc4c(c3)C(C)(C)CCC4(C)C)cs2)CC1 (stereo not drawn) [Compound A20] | 10 to 1000 nM
COc1ccccc1N1CCN(CCN2CCC(c3nc(-c4ccc5c(c4)C(C)(C)CCC5(C)C)cs3)CC2)CC1 [Compound A35] | > 10000 nM

Query: Give SphK1 (Homo sapiens, UniProt Q9NYA1) IC50 for OCCCN1CCC(c2nc(-c3ccc4c(c3)CCCC4)cs2)CC1 [Compound A13]
Reply: 1000 to 10000 nM

Query: Which measured IC50 belongs to CCc1cc2c(cc1-c1csc(C3CCNCC3)n1)C(C)(C)CCC2(C)C [Compound C11] , tested on SphK1 (Homo sapiens, UniProt Q9NYA1)?
Reply: > 10000 nM

Query: Form field: IC50 recorded for CN1CCCC(COC(=O)N2CCC(c3nc(-c4ccc5c(c4)C(C)(C)CCC5(C)C)cs3)CC2)C1 (stereo not drawn) [Compound A50] with SphK1 (Homo sapiens, UniProt Q9NYA1) (enter value)
Reply: > 10000 nM

Query: Could you share what IC50 was measured for Cc1noc(C)c1CN1CCC(c2nc(-c3ccc4c(c3)C(C)(C)CCC4(C)C)cs2)CC1 [Compound B12] , tested on SphK1 (Homo sapiens, UniProt Q9NYA1)?
Reply: 1000 to 10000 nM

Query: Can you look up IC50 on SphK1 (Homo sapiens, UniProt Q9NYA1) for CN(C)CC(=O)N1CCC(c2nc(-c3ccc4c(c3)C(C)(C)CCC4(C)C)cs2)CC1 [Compound A55] ?
Reply: > 10000 nM

Query: Report IC50 for CC1(C)CC(C)(C)c2cc(-c3csc(C4CCN(CCCO)CC4)n3)ccc21 [Compound B4] tested on SphK1 (Homo sapiens, UniProt Q9NYA1).
Reply: 10 to 1000 nM

Query: Record lookup: for SphK1 (Homo sapiens, UniProt Q9NYA1), what IC50 belongs to CN(C)CC(C)(C)CN1CCC(c2nc(-c3ccc4c(c3)C(C)(C)CCC4(C)C)cs2)CC1 [Compound A76] ?
Reply: > 10000 nM

Query: What reported IC50 corresponds to CC1(O)CCCc2cc(-c3csc(C4CCNCC4)n3)ccc21 (stereo not drawn) [Compound C2] on SphK1 (Homo sapiens, UniProt Q9NYA1)?
Reply: 10 to 1000 nM

Query: Notebook entry, SphK1 (Homo sapiens, UniProt Q9NYA1) assay: IC50 of CC1(C)CCC(C)(C)c2cc(-c3csc(C4CCN(CCn5c(=O)[nH]c6ccccc6c5=O)CC4)n3)ccc21 [Compound A24] = ?
Reply: 1000 to 10000 nM

Query: Param readout= IC50; system= SphK1 (Homo sapiens, UniProt Q9NYA1); entry= CC1(C)CCC(C)(C)c2cc(-c3csc(C4CCN(C(=O)[C@H]5C[C@H](O)CN5)CC4)n3)ccc21 [Compound A68] ; returns value.
Reply: 1000 to 10000 nM

These measurements were taken from patent US8436186B2.
